target: human serotonin transporter (Homo sapiens, UniProt P31645)
Sequence (P31645 whole entry): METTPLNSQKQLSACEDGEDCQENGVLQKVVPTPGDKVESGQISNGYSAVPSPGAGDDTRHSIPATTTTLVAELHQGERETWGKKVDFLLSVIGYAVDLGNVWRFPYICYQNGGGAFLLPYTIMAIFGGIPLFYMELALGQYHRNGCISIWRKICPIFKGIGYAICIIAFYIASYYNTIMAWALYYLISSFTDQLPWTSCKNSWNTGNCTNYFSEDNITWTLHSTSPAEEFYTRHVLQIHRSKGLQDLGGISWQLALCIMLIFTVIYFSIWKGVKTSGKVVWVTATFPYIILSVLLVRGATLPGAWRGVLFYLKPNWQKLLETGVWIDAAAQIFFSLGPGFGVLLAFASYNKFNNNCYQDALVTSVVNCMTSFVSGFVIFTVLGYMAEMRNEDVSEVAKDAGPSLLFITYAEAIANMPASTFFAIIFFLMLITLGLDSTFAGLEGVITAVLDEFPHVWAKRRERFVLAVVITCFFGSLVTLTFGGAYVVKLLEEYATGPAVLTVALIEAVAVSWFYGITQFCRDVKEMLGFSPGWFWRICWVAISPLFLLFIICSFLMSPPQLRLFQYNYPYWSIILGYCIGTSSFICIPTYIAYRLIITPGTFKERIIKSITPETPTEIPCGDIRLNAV
Structures can show the parent of a compound that is named as a salt.
Label key: satisfied means IC50 under 200 nM; not satisfied means IC50 of 200 nM or more.

• CCCCCCn1c(-c2ccccc2)cc(C(=O)NCCCN2CCN(c3cccc(Cl)c3Cl)CC2)c1C [Example 72, hydrochloride] = not satisfied

Does this molecule meet the criterion IC50 < 200 nM? Cc1cccc(N2CCN(CCCNC(=O)c3cc(-c4ccc(Cl)cc4)n(C)c3C)CC2)c1C [Example 61, hydrochloride] satisfied

hey, is IC50 for Cc1[nH]c(-c2ccc(Cl)cc2)cc1C(=O)NCCCN1CCN(c2cccc(Cl)c2Cl)CC1 [Example 45, hydrochloride] lower than 200 nM or not? satisfied

Dear colleague, could you confirm whether IC50 of Cc1c(C(=O)NCCCN2CCN(c3cccc(Cl)c3Cl)CC2)cc(-c2ccncc2)n1C [Example 106] falls below 200 nM? Thanks. satisfied

Here's an entry: Cc1[nH]c(-c2ccccc2)cc1C(=O)NCCCCN1CCN(c2cccc(Cl)c2Cl)CC1 [Example 41, hydrochloride] . Is its IC50 below 200 nM? satisfied

Does the reported IC50 of CCCn1c(-c2ccc(Cl)cc2)cc(C(=O)NCCCN2CCN(c3cccc(Cl)c3Cl)CC2)c1C [Example 66, hydrochloride] stay below 200 nM? not satisfied

Hi there! Is IC50 for Cc1[nH]c(-c2ccccc2)cc1C(=O)NCCN1CCN(c2cccc(Cl)c2Cl)CC1.Cl [Example 48, hydrochloride] below 200 nM, do you know? satisfied

Is 200 nM strictly greater than the molecule's reported IC50? molecule: CCCn1c(-c2ccc(Cl)cc2)cc(C(=O)NCCCN2CCN(c3cccc(C)c3C)CC2)c1C [Example 65, hydrochloride] satisfied

For C=CCCc1cc(C(=O)NCCCN2CCN(c3cccc(Cl)c3Cl)CC2)c(C)n1C [Example 136] , is the recorded IC50 below the cut-off of 200 nM? not satisfied

* * *

target: UniProtKB P31645
Counter-ions that a name gives are not always drawn.
measured.endpoint: pIC50
# log scale: pIC50 equals minus log10 of the concentration in mol/L

Sample answers from the record:
* C=CCCc1cc(C(=O)NCCCN2CCN(c3cccc(Cl)c3Cl)CC2)c(C)[nH]1 | 6.84
* COc1cccc(N2CCN(CCCNC(=O)c3cc(-c4ccccc4)n(C)c3C)CC2)c1OC | 5.90
* CCCn1c(-c2ccccc2)cc(C(=O)NCCCN2CCN(c3ccccc3OC)CC2)c1C | 5.96
* CCn1c(-c2ccccc2)cc(C(=O)NCCN2CCN(c3cccc(Cl)c3Cl)CC2)c1C [Example 49, hydrochloride] | 7.07
* Cc1c(C(=O)NCCCN2CCN(c3cccc(Cl)c3Cl)CC2)cc(-c2ccc(Cl)cc2)n1C [Example 62, hydrochloride] | 6.13
* Cc1c(C(=O)NCCCN2CCN(c3cccc(Cl)c3)CC2)cc(-c2ccccc2)n1CC1CCCCC1 | 6.67
* CCCn1c(-c2ccccc2)cc(C(=O)NCCCN2CCN(c3cccc(Cl)c3Cl)CC2)c1C | 6.38
* Cc1c(C(=O)NCCCN2CCN(c3cccc(Cl)c3Cl)CC2)cc(-c2ccccn2)n1C [Example 92, dihydrochloride] | 6.96
* Cc1c(C(=O)NCCCN2CCN(c3cc(Cl)ccc3Cl)CC2)cc(-c2ccccc2)n1C | 6.87
* CCCn1c(-c2cccc(OC)c2)cc(C(=O)NCCCN2CCN(c3cccc(Cl)c3Cl)CC2)c1C [Example 82, hydrochloride] | 6.71

Item CCn1c(-c2ccc(Cl)cc2)cc(C(=O)NCCCN2CCN(c3cccc(C)c3C)CC2)c1C [Example 63, hydrochloride] ; assay system UniProtKB P31645; pIC50 reported as 7.03

// returns pIC50 for CCCn1c(-c2ccccc2)cc(C(=O)NCCN2CCN(c3cccc(Cl)c3Cl)CC2)c1C [Example 39, hydrochloride] with UniProtKB P31645; value = 7.49

// compound Cc1[nH]c(-c2ccccc2)c(C)c1C(=O)NCCCCN1CCN(c2cccc(Cl)c2Cl)CC1 [Example 78, hydrochloride] , assay UniProtKB P31645, pIC50 value: 7.13

UniProtKB P31645 data for Cc1cccc(N2CCN(CCCCNC(=O)c3cc(-c4ccccc4)n(C)c3C)CC2)c1C [Example 35, hydrochloride] ; its pIC50: 6.83

Entry Cc1c(C(=O)NCCN2CCN(c3cccc(Cl)c3Cl)CC2)cc(-c2ccc(Cl)cc2)n1C [Example 68, hydrochloride] under UniProtKB P31645 had pIC50 of 6.75
